PROCEDURE SUMMARY: LNP size and polydispersity index (PDI) by dynamic light scattering (Zetasizer)
Format: physicochemical
CONDITIONS: Formulation No. 001, RNA No. 019 (hEPO)
Hi there, I'd appreciate the recorded Size for every entry that follows.
Numbers only, in nm.

Completed entries (count: 10):
[[record]]
molecule = "CCCCC/C=C\\C/C=C\\CCCCCCCC(=O)N[C@@H](COC(=O)NCCN1CCCCCC1)C(=O)OCCCCCCCC(=O)OC(CCCCCCCC)CCCCCCCC"
result_units = "nm"
numeric_result = 67.47

[[record]]
molecule = "CCCCCCCCCCC(CCCCCCCC)COC(=O)CCCCCOC(=O)NC(COC(=O)NCCN1CCCCCC1)C(=O)OCCCCCC(=O)OCC(CCCCCCCC)CCCCCCCCCC (stereo not drawn)"
result_units = "nm"
numeric_result = 57.55

[[record]]
molecule = "CCCCCCCCC(CCCCCC)C(=O)OCCCCCCCCOC(=O)NC(COC(=O)NCCN1CCCCC1)C(=O)OCCCCCCCCOC(=O)C(CCCCCC)CCCCCCCC (stereo not drawn)"
result_units = "nm"
numeric_result = 59.39

[[record]]
molecule = "CCCCC/C=C\\C/C=C\\CCCCCCCC(=O)N[C@@H](COC(=O)NCCN1CCCCC1)C(=O)OCCCCCCCC(=O)OC(CCCCCCCC)CCCCCCCC"
result_units = "nm"
numeric_result = 73.40

[[record]]
molecule = "CCCCCCCC/C=C\\CCCCCCCC(=O)NC(COC(=O)NCCN1CCCCC1)C(=O)OCCCCCCCCOC(=O)C(CCCCCC)CCCCCCCC (stereo not drawn)"
result_units = "nm"
numeric_result = 68.99

[[record]]
molecule = "CCCCCCCCCCCOC(=O)CCCCCOC(=O)C(COC(=O)NCCN1CCCCCC1)NC(=O)OCCCCCCCCOC(=O)C(CCCCCC)CCCCCCCC (stereo not drawn)"
result_units = "nm"
numeric_result = 87.04

[[record]]
molecule = "CCCCC/C=C\\C/C=C\\CCCCCCCC(=O)NC(COC(=O)NCCN1CCCCC1)C(=O)OCCCCCCCC(=O)OC(CCCCCCCC)CCCCCCCC (stereo not drawn)"
result_units = "nm"
numeric_result = 64.53

[[record]]
molecule = "CCCCC/C=C\\C/C=C\\CCCCCCCCOC(=O)NC(COC(=O)NCCN1CCCCCC1)C(=O)OCCCCCC(=O)OCC(CCCCCCCC)CCCCCCCCCC (stereo not drawn)"
result_units = "nm"
numeric_result = 58.16

[[record]]
molecule = "CCCCC/C=C\\CCOC(=O)CCCCCOC(=O)C(COC(=O)NCCN1CCCCCC1)NC(=O)OCCCCCCCCOC(=O)C(CCCCCC)CCCCCCCC (stereo not drawn)"
result_units = "nm"
numeric_result = 90.32

[[record]]
molecule = "CCCCCCCCCC(=O)OCCCCCCCOC(=O)C(COC(=O)NCCN1CCCCCC1)NC(=O)OCCCCCCCCOC(=O)C(CCCCCC)CCCCCCCC (stereo not drawn)"
result_units = "nm"
numeric_result = 70.30


Batch of 2 molecules: report Size for each.
1. CCCCCCCCCCC(CCCCCCCC)COC(=O)CCCCCOC(=O)NC(COC(=O)NCCN1CCCCC1)C(=O)OCCCCCC(=O)OCC(CCCCCCCC)CCCCCCCCCC (stereo not drawn)
2. CCCCC/C=C\C/C=C\CCCCCCCC(=O)NC(COC(=O)NCCN1CCCCCC1)C(=O)OCCCCCCCC(=O)OC(CCCCCCCC)CCCCCCCC (stereo not drawn)

Output:
1: 55.95; 2: 66.58

====

Tested on: injection site skin
PROCEDURE SUMMARY: In vivo tolerability after intradermal injection: H&E staining of injection site skin
Design: species or system C57BL/6J mice
CONDITIONS: sum of lesion grades of the group (N=3), intradermal 0.15 mg/kg, 72 h, Formulation 001, RNA 331
RECORDED ENDPOINT: Total score

Completed entries (count: 8):
[[record]]
molecule = "CCCCC/C=C\\C/C=C\\CCCCCCCC(=O)N[C@H](COC(=O)NCCN1CCCCCC1)C(=O)OCCCCCC(=O)OC(CCCCCCCC)CCCCCCCC"
result = 6

[[record]]
molecule = "CCCCC/C=C\\C/C=C\\CCCCCCCC(=O)N[C@@H](COC(=O)NCCN1CCCCCC1)C(=O)OCCCCCCCC(=O)OC(CCCCCCCC)CCCCCCCC"
result = 7

[[record]]
molecule = "CCCCCCCC/C=C\\CCCCCCCC(=O)NC(COC(=O)NCCN1CCCCC1)C(=O)OCCCCCCCCOC(=O)C(CCCCCC)CCCCCCCC (stereo not drawn)"
result = 7

[[record]]
molecule = "CCCCC/C=C\\C/C=C\\CCCCCCCC(=O)N[C@@H](COC(=O)NCCN1CCCCC1)C(=O)OCCCCCCCC(=O)OC(CCCCCCCC)CCCCCCCC"
result = 6

[[record]]
molecule = "CCCCC/C=C\\C/C=C\\CCCCCCCC(=O)NC(COC(=O)NCCN1CCCCC1)C(=O)OCCCCCC(=O)OCC(CCCCCCCC)CCCCCCCCCC (stereo not drawn)"
result = 4

[[record]]
molecule = "CCCCC/C=C\\C/C=C\\CCCCCCCC(=O)NC(COC(=O)NCCN1CCCCCC1)C(=O)OCCCCCCCC(=O)OC(CCCCCCCC)CCCCCCCC (stereo not drawn)"
result = 7

[[record]]
molecule = "CCCCC/C=C\\C/C=C\\CCCCCCCC(=O)NC(COC(=O)NCCN1CCCCC1)C(=O)OCCCCCCCC(=O)OC(CCCCCCCC)CCCCCCCC (stereo not drawn)"
result = 4

[[record]]
molecule = "CCCCCCCC/C=C\\CCCCCCCC(=O)NC(COC(=O)NCCN1CCCCCC1)C(=O)OCCCCCCCCOC(=O)C(CCCCCC)CCCCCCCC (stereo not drawn)"
result = 5


Moving on to another molecule below.
Input: Entry CCCCC/C=C\C/C=C\CCCCCCCC(=O)NC(COC(=O)NCCN1CCCCCC1)C(=O)OCCCCCC(=O)OCC(CCCCCCCC)CCCCCCCCCC (stereo not drawn) needs its Total score filled in; supply it.
Output: 5

====

Hi there, I'd appreciate the recorded hEPO conc. (ng/mL) at 6 h for every entry that follows.
System: hEPO
PROCEDURE SUMMARY: In vivo expression by IM: serum hEPO concentration by ELISA
CONDITIONS: IM 0.075 mg/kg, 6 h, male C57BL/6J mice N=3, Formulation 001, RNA 019
Numbers only, in ng/mL.

[[record]]
compound = "CCCCC/C=C\\C/C=C\\CCCCCCCC(=O)NC(COC(=O)NCCN1CCCCC1)C(=O)OCCCCCCCC(=O)OC(CCCCCCCC)CCCCCCCC (stereo not shown)"
result_units = "ng/mL"
numeric_result = 7.26

[[record]]
compound = "CCCCC/C=C\\C/C=C\\CCCCCCCC(=O)N[C@@H](COC(=O)NCCN1CCCCC1)C(=O)OCCCCCCCC(=O)OC(CCCCCCCC)CCCCCCCC"
result_units = "ng/mL"
numeric_result = 7.35

[[record]]
compound = "CCCCC/C=C\\C/C=C\\CCCCCCCC(=O)N[C@@H](COC(=O)NCCN1CCCCCC1)C(=O)OCCCCCCCC(=O)OC(CCCCCCCC)CCCCCCCC"
result_units = "ng/mL"
numeric_result = 5.02


Moving on to another compound below.
Input: Entry CCCCC/C=C\C/C=C\CCCCCCCC(=O)NC(COC(=O)NCCN1CCCCCC1)C(=O)OCCCCCCCC(=O)OC(CCCCCCCC)CCCCCCCC (stereo not shown) needs its hEPO conc. (ng/mL) at 6 h filled in; supply it.
Output: 6.19

====

Test system: IL-6
PROCEDURE SUMMARY: In vivo tolerability by IV: serum IL-6 by Luminex
Parameters: species or system C57BL/6J mice
CONDITIONS: IV 1.0 mg/kg, 2 h, male C57BL/6J mice N=3, Formulation 001, RNA 331
Hi there, I'd appreciate the recorded IL-6 at 2 h for every entry that follows.
Give bare numbers, in pg/mL.

[[record]]
compound = "CCCCCCCCCCC(CCCCCCCC)COC(=O)CCCCCOC(=O)NC(COC(=O)NCCN(C)C)C(=O)OCCCCCC(=O)OCC(CCCCCCCC)CCCCCCCCCC (stereo not drawn) [Lipid 1017]"
study_target = "IL-6"
result_units = "pg/mL"
numeric_result = 12.8

[[record]]
compound = "CCCCCCCCCCC(CCCCCCCC)COC(=O)CCCCCOC(=O)NC(COC(=O)NCCN1CCCCC1)C(=O)OCCCCCC(=O)OCC(CCCCCCCC)CCCCCCCCCC (stereo not drawn) [Lipid 1020]"
study_target = "IL-6"
result_units = "pg/mL"
numeric_result = 90.5

[[record]]
compound = "CCCCCCCCCCC(CCCCCCCC)COC(=O)CCCCCOC(=O)NC(COC(=O)NCCN1CCCCCC1)C(=O)OCCCCCCCC(=O)OC(CCCCCCCC)CCCCCCCC (stereo not drawn) [Lipid 1072]"
study_target = "IL-6"
result_units = "pg/mL"
numeric_result = 2.07

[[record]]
compound = "CCCCCCCCCCC(CCCCCCCC)COC(=O)CCCCCOC(=O)NC(COC(=O)NCCN1CCCCCC1)C(=O)OCCCCCC(=O)OCC(CCCCCCCC)CCCCCCCCCC (stereo not drawn) [Lipid 1021]"
study_target = "IL-6"
result_units = "pg/mL"
numeric_result = 28.6

[[record]]
compound = "CCCCCCCCCCC(CCCCCCCC)COC(=O)CCCCCOC(=O)NC(COC(=O)NCCN1CCCC1)C(=O)OCCCCCC(=O)OCC(CCCCCCCC)CCCCCCCCCC (stereo not drawn) [Lipid 1019]"
study_target = "IL-6"
result_units = "pg/mL"
numeric_result = 404


Input: Output reported IL-6 at 2 h of the compound CCCCCCCC/C=C\CCCCCCCCOC(=O)NC(COC(=O)NCCN1CCCCCC1)C(=O)OCCCCCC(=O)OCC(CCCCCCCC)CCCCCCCCCC (stereo not drawn) [Lipid 1041] on IL-6.
Output: 51.2
